Target: HLA-A*02:01 (Homo sapiens, UniProt P04439, D140Y/D185E/D98H/E176V/E277Q/G131W/G231S/I119V/I121R/I166T/I218V/L300P/L318F/N151K/N90K/P208A/P217A/Q86G/Q94H/R138H/R169H/T345S)
Construct: made in house
Test: MHC binding assay: UV-ligand exchange with β2m ELISA (peptide exchange yield)
Settings: binding to HLA-A*02:01 evaluated by peptide exchange yield (UV-ligand exchange, β2m ELISA)
Measured quantity: Peptide exchange

Example entries begin here.
• 141 (NIDINNNEL; listed as Homo sapiens) [compound 141] = ++ (≧20% = ++)
• 283 (ALSELLQQV; listed as Homo sapiens) [compound 283] = +++ (≧50 = +++)
• 81 (ILAEEPIYI; listed as Homo sapiens) [compound 81] = ++ (≧20% = ++)
• 63 (KLLPMVIQL; listed as Homo sapiens) [compound 63] = +++ (≧50 = +++)
• 10 (QLIEKNWLL; listed as Homo sapiens) [compound 10] = +++ (≧50 = +++)

[ask] Any idea what Peptide exchange was measured for 175 (SLLDLVQSL; listed as Homo sapiens) [compound 175] ?
[reply] +++ (≧50 = +++)

[ask] Any idea what Peptide exchange was measured for 155 (TLDSYLKAV; listed as Homo sapiens) [compound 155] ?
[reply] ++ (≧20% = ++)

[ask] Any idea what Peptide exchange was measured for 90 (AILNVDEKNQV; listed as Homo sapiens) [compound 90] ?
[reply] ++ (≧20% = ++)

[ask] Any idea what Peptide exchange was measured for 243 (GLAEFQENV; listed as Homo sapiens) [compound 243] ?
[reply] ++ (≧20% = ++)
